Data provenance: patent US20200055939A1

# Target Desc: T1, huMICA*002 alpha 3-his (human)
# T1 construct: whole construct entry: GS, alpha 3 domain, GNS, His8; also called MICA002.His; MICA*002 alpha3 construct
# T1 chain: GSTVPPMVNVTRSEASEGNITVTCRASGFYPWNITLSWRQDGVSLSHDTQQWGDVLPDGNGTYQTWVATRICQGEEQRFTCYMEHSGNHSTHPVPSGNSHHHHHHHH
# Test Description: SPR, Biacore 8K, antibody on Protein A chip
Observed Property: Kd (nM)
Answer format: numeric, nM implied, no suffix.

Please give the measured Kd for this binder: 15F11v6 (antibody, IgG1, V domains shown, humanized variant of 15F11) VH: EIQLVQSGAEVKKPGSSVKVSCKPSGYAFTSNNIYWVRQAPGQGLEWIGYIDPYIGRIIYNQQFKDRATLTVDKSTSTAYMELSSLRSEDTAVYYCSRSGERSNFDYWGQGTLVTVSS VL: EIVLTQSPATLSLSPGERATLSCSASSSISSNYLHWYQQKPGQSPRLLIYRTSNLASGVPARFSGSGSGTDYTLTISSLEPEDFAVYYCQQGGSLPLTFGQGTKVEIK 5.47
